# ASSAY NAME: HEp-2 cell cytotoxicity, dose response, cytotoxicity control for RSV inhibitor project, HTS (AID 2410)
# Type: functional
# CONDITION DETAILS: human respiratory syncytial virus
Calls of active or inactive are those of the source.
Consider the following compounds and their measured CC50 readings.

# COMPOUND STRING, CC50
data = [
    ("CCOC(=O)c1c(N)sc(-c2ccccc2)c1C", "28.5 µM (active)"),
    ("Oc1ccccc1-c1nc2c3ccccc3c3ccccc3c2[nH]1", "15.3 µM (active)"),
    ("CCCOC(=O)c1c(-c2ccccc2)nc(CC)c(C(=O)SCC)c1CCC", "35.6 µM (active)"),
]

Let us examine a further case.
q: Give the value of CC50 reported for the following: "COc1ccc(CCNC(=O)c2cc3sc(Cl)cc3n2C)cc1OC"
a: 27.5 µM (active)

* * *

# SYSTEM UNDER TEST: RNA-binding protein pos-1 (Caenorhabditis elegans, UniProt G5EF15)
# Sequence (G5EF15 whole entry): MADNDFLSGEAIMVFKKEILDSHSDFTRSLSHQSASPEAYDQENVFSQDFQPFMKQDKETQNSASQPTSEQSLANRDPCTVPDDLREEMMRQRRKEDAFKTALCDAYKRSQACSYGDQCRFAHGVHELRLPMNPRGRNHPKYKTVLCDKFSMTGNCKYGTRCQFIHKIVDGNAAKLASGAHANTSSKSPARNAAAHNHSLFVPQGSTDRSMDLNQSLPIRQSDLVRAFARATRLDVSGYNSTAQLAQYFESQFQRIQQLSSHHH
# ASSAY NAME: inhibitors of POS-1/mex-3 RNA binding, dose response, biochemical, fluorescence polarization (AID 1964);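 note: purified POS-1 fused to maltose binding protein made in E. coli; potency of compounds blocking POS-1 binding to fluorescent RNA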
PROPERTY MEASURED: EC50

q: Give the value of EC50 reported for the following: C=CCOc1ccc(C2C(C(=O)c3ccco3)=C(O)C(=O)N2c2nnc(C)s2)cc1 (stereo not given)
a: > 300 µM (not active)

q: Give the value of EC50 reported for the following: Cc1ccc(S(=O)(=O)C(C#N)c2nc3ccccc3nc2N2CCC(C)CC2)cc1 (stereo not given)
a: > 300 µM (inconclusive)

* * *

# SYSTEM UNDER TEST: Cytochrome P450 2D6 (Homo sapiens)
# Sequence (P10635 whole entry): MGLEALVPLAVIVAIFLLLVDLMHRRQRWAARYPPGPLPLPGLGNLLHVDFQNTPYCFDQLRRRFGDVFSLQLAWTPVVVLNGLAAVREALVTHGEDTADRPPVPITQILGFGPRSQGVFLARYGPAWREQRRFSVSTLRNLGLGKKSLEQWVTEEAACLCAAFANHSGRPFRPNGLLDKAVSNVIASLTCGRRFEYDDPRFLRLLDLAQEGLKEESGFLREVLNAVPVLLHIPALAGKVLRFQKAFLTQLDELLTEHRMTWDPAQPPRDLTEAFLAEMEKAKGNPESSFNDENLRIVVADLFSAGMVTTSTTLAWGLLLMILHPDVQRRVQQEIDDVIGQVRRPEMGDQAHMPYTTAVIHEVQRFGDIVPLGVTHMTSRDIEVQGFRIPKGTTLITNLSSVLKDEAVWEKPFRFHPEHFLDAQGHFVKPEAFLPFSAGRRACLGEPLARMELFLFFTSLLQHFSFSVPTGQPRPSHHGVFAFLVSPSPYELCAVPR
Consider the following molecules and their measured AC50 readings.

Example molecules with recorded AC50:
# MOLECULE, OBS VALUE
rows = [
    ("CCOC(=O)c1ccc(Nc2nc(-c3cccnc3)nc3ccccc23)cc1", "10 µM (inconclusive)"),
    ("CCOc1ccc(OCc2ccc(C(=O)NCc3cccnc3)o2)cc1", "1.26 µM (inconclusive)"),
    ("OCCN1CCN(C(=S)c2ccc(Br)cc2)CC1", "0.0224 µM (inconclusive)"),
    ("COc1ccc(CCN2/C(=N/C(=O)CCC(=O)O)SC3CS(=O)(=O)CC32)cc1 (stereo not drawn)", "39.8 µM (inconclusive)"),
    ("O=C(Nc1cccc(NC(=O)c2ccccc2[N+](=O)[O-])n1)c1ccccc1[N+](=O)[O-]", "20 µM (inconclusive)"),
    ("CCCCCCN1C=CC(=C/C=C(\\C#N)C(=O)OCC)C=C1", "14.1 µM (inconclusive)"),
]

q: System Cytochrome P450 2D6 (Homo sapiens). Read-out AC50. Item "Cc1ccccc1CSc1nnc(-c2cccs2)n1Cc1ccco1" . Report value.
a: 1.12 µM (inconclusive)

q: System Cytochrome P450 2D6 (Homo sapiens). Read-out AC50. Item "COc1ccccc1/C=C/C(=O)c1ccc(Cl)cc1" . Report value.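 Note: CYP2D6 member of a cytochrome P450 panel assay.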
a: 15.8 µM (inconclusive)
